Data credit: patent US20250051277A1

- Type: physicochemical
- RUN_CONDITIONS: SGF with pepsin, pH 1.5, 37° C., 0.5 mM; time 1 min
PARAMETER: Condition 1 Conversion (%)

[
  {
    "COMPOUND": "COc1ccc([C@@]23CC/C(=N/OC45CC6CC(CC(C6)C4)C5)C[C@@H]2N(C)CC3)cc1OC [Compound 274]",
    "DATA_VALUE": "0%"
  },
  {
    "COMPOUND": "COc1ccc([C@@]23CCC(=NNC(=O)c4ccncc4)C[C@@H]2N(C)CC3)cc1OC",
    "DATA_VALUE": "100%"
  },
  {
    "COMPOUND": "COc1ccc([C@@]23CC/C(=N\\NC(=O)Nc4ccc(N5CCN(C)CC5)cc4)C[C@@H]2N(C)CC3)cc1OC",
    "DATA_VALUE": "4.6%"
  },
  {
    "COMPOUND": "COc1ccc([C@@]23CC/C(=N\\NC(=O)C4(C(=O)O)CC4)C[C@@H]2N(C)CC3)cc1OC",
    "DATA_VALUE": "80.17%"
  },
  {
    "COMPOUND": "COc1ccc([C@@]23CCC(=NNC(=O)c4ccc(F)cc4)C[C@@H]2N(C)CC3)cc1OC",
    "DATA_VALUE": "86.72%"
  },
  {
    "COMPOUND": "COc1ccc([C@]23CCN(C)[C@H]2CC2(CC3)OCCO2)cc1OC",
    "DATA_VALUE": "0%"
  },
  {
    "COMPOUND": "COc1ccc([C@]23CCN(C)[C@H]2CC2(CC3)SCCS2)cc1OC",
    "DATA_VALUE": "0%"
  },
  {
    "COMPOUND": "CO/N=C1/CC[C@@]2(c3ccc(OC)c(OC)c3)CCN(C)[C@H]2C1",
    "DATA_VALUE": "0%"
  }
]
